Test: fluorescence interference in NS3h DNA assay – biochemical, ChemBridge library, Cy5 readout, artefact control for HCV NS3 helicase inhibitor project (AID 720488)
Details: Cy5-dT15 DNA with NS3h, at 100 µM, actives lie on both sides, signal over control mean, under 1 quenches
About 960 (6%) of roughly 16,000 compounds were called active. The full list was thinned out, with actives kept by preference.
Result Type: fluorescence interference ratio

Observe how each entry below is paired with its result.
- Compound: "CCOC(=O)c1[nH]c(=O)[nH]c1CSc1nccn1C"
  Reading: "1.03 (inactive)"
- Compound: "COc1ccc(N2C(=O)C3C4C=CC(C4=C(C)C)C3C2=O)c([N+](=O)[O-])c1 (stereo not drawn)"
  Reading: "0.887 (inactive)"
- Compound: "O=C1CC2c3ccccc3C1C1C(=O)N(c3ccc(Br)cc3)C(=O)C21 (stereo not drawn)"
  Reading: "1.04 (inactive)"
- Compound: "COCCCNC(=O)C(=O)NCCc1ccc(OC)c(OC)c1"
  Reading: "0.956 (inactive)"
- Compound: "COc1ccc(Cl)cc1C(=O)N1CCN(c2cccc(Cl)c2)CC1"
  Reading: "0.934 (inactive)"

Consider now this further compound.
Asked: I have this compound here, O=C(CN(c1ccc(Br)cc1)S(=O)(=O)c1ccccc1)NCC1CCCO1 (stereo not drawn) , and I need its recorded fluorescence interference ratio.
Given back: 1.03 (inactive)

###

Experiment: fluorescence interference in NS3h DNA assay – biochemical, ChemBridge library, Cy5 readout, artefact control for HCV NS3 helicase inhibitor project (AID 720488)
Details: Cy5-dT15 DNA with NS3h, at 100 µM, actives lie on both sides, signal over control mean, under 1 quenches
Among all 16,000 compounds or so, about 960 (6%) were called active. The list comes from a sample in which actives are over-represented; it also holds close analogues and randomly drawn compounds.
Where fluorescence interference ratio equals or exceeds 0.9, the correct label is class 1; where it does not, the label is class 0.

Solved cases below.
- Smiles Code: "COc1ccc(NC(=O)c2cccc(Cl)c2Cl)cc1OC"
  Assigned Category: "class 0"
- Smiles Code: "COc1ccc(Br)cc1C(=O)Nc1ccc(F)c([N+](=O)[O-])c1"
  Assigned Category: "class 1"
- Smiles Code: "COc1ccccc1/C=C1\\SC(=S)N(CC(C)C)C1=O"
  Assigned Category: "class 1"

Asked: Hello, I need to know if O=C1/C(=C\c2cccc(C(F)(F)F)c2)SC(=S)N1c1ccccc1 has measured fluorescence interference ratio not below 0.9. Thanks!
Given back: class 1

Asked: Would you mind doing COc1ccc(S(=O)(=O)Nc2cc(Br)c(O)c(Br)c2)cc1 as well?
Given back: class 1

###

Test: fluorescence interference in NS3h DNA assay – biochemical, ChemBridge library, Cy5 readout, artefact control for HCV NS3 helicase inhibitor project (AID 720488)
Details: Cy5-dT15 DNA with NS3h, at 100 µM, actives lie on both sides, signal over control mean, under 1 quenches
Screen size: about 16,000 compounds; about 960 (6%) were called active. What follows is part of a selection rich in actives, with near analogues and random picks from the rest.
Result Type: fluorescence interference ratio
Note: the reply should be a number with no unit written.

In the examples that follow, each entry is paired with its recorded fluorescence interference ratio.
- Compound: "Oc1cccc(Nc2nc(-c3ccc(Br)cc3)cs2)c1"
  fluorescence interference ratio: 0.941
- Compound: "O=C(NCC1OCCc2ccccc21)C(c1ccccc1)c1ccccc1 (stereo unspecified)"
  fluorescence interference ratio: 1.08
- Compound: "CN1CCN(C(=O)c2cc3nc(-c4cccs4)cc(C(F)(F)F)n3n2)CC1"
  fluorescence interference ratio: 0.935

Asked: What does the record list as fluorescence interference ratio for Cc1cccc(OCC(=O)Nc2ccc(Cl)c(C(F)(F)F)c2)c1 ?
Given back: 1.07

Asked: Another compound to check: O=C(CCN1C(=O)/C(=C/c2ccccc2)SC1=S)Nc1cccc(Cl)c1
Given back: 1.04

Asked: Cool, now C=CCN1C(=O)/C(=C/c2ccccc2OCc2ccc([N+](=O)[O-])cc2)SC1=S
Given back: 1.07

###

Test: fluorescence interference in NS3h DNA assay – biochemical, ChemBridge library, Cy5 readout, artefact control for HCV NS3 helicase inhibitor project (AID 720488)
Settings: Cy5-dT15 DNA with NS3h, at 100 µM, actives lie on both sides, signal over control mean, under 1 quenches
In all, about 16,000 compounds went through this assay and about 960 (6%) were called active. Shown is part of a subset that was picked to be rich in actives.
Kind request: treat 1 as inclusive, so fluorescence interference ratio at 1 or higher is criterion met, anything lower is criterion not met.

Asked: API: above_or_equal(metric=fluorescence interference ratio, cutoff=1) for item O=C(Nc1ccc(Cl)c(Cl)c1)Nc1nnc(-c2ccc(Br)cc2)s1
Given back: criterion met

###

Assay: fluorescence interference in NS3h DNA assay – biochemical, ChemBridge library, Cy5 readout, artefact control for HCV NS3 helicase inhibitor project (AID 720488)
Conditions: Cy5-dT15 DNA with NS3h, at 100 µM, actives lie on both sides, signal over control mean, under 1 quenches
The whole screen tested about 16,000 compounds, of which about 960 (6%) were called active.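 The calls were made as follows: active = compound fluorescence over control fluorescence at most 0.8, a quencher, or at least a set upper limit, an enhancer; inactive = ratio between 0.8 and the set upper limit.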 What follows is part of a selection rich in actives, with near analogues and random picks from the rest.
Pick one and only one: active, inactive

The following compounds have reported results that may help.
- Compound: "CCCCOC(=O)CCN1C(=O)/C(=C/c2ccc3c(c2)OCO3)SC1=S"
  Assigned Category: "inactive"
- Compound: "CCN1C(=O)/C(=C\\c2cn(Cc3ccc(F)cc3)c3ccccc23)SC1=S"
  Assigned Category: "inactive"
- Compound: "C=CCOc1ccccc1C=C1C(=O)NC(=O)NC1=O"
  Assigned Category: "inactive"
- Compound: "Cn1cnc2c1c(=O)n(Cc1ccc(F)cc1)c(=O)n2C"
  Assigned Category: "inactive"
- Compound: "O=C(O)CC1S/C(=N\\N=C/c2ccccc2O)N(c2ccc(O)cc2)C1=O (stereo unspecified)"
  Assigned Category: "inactive"

Asked: For CC(=O)c1cccc(NC(=O)c2ccc(N(Cc3ccc(Cl)cc3)S(C)(=O)=O)cc2)c1 , which call appears in the assay record?
Given back: active

Asked: Can you check CCC(=O)CC(O)(c1ccccc1)C(F)(F)F (stereo unspecified) next?
Given back: inactive

Asked: Let us now turn to CSc1ccccc1NC(=O)CSc1nc2ccccc2o1
Given back: active

Asked: Same for NS(=O)(=O)c1ccc(CNC(=O)c2ccc(Cl)cc2[N+](=O)[O-])cc1
Given back: inactive

Asked: And the next one, O=C(NCCCN1CCOCC1)C(=O)Nc1ccc(F)cc1 ?
Given back: inactive

Asked: // repeat for COC(=O)C1CC(OCc2ccccc2)C1 (stereo unspecified) and report
Given back: inactive

###

Assay: fluorescence interference in NS3h DNA assay – biochemical, ChemBridge library, Cy5 readout, artefact control for HCV NS3 helicase inhibitor project (AID 720488)
Details: Cy5-dT15 DNA with NS3h, at 100 µM, actives lie on both sides, signal over control mean, under 1 quenches
About 960 (6%) of roughly 16,000 compounds were called active.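 How the source made its calls: active means compound fluorescence over control fluorescence at most 0.8, a quencher, or at least a set upper limit, an enhancer; inactive means ratio between 0.8 and the set upper limit.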 The full list was thinned out, with actives kept by preference.
The reply should be one of these categories: 1.0 = active, 0.0 = inactive

Solved cases (8 shown):
- Compound: "O=C(Nc1ccncc1)c1cc2ccccc2o1"
  Assigned Category: 1.0
- Compound: "CCOC(=O)c1ccc(NC(=O)C(=O)NCc2ccc(C)cc2)cc1"
  Assigned Category: 0.0
- Compound: "CCOC(=O)c1ccc(NC(=O)CN(c2cccc([N+](=O)[O-])c2)S(=O)(=O)c2ccccc2)cc1"
  Assigned Category: 1.0
- Compound: "O=c1oc2cc(OC/C=C/c3ccccc3)ccc2c2ccccc12"
  Assigned Category: 0.0
- Compound: "COc1ccc(NC(=O)C(=O)NCc2ccccn2)c(OC)c1"
  Assigned Category: 0.0
- Compound: "Cc1ccc(NC(=O)c2cccc(C(=O)Nc3ccc(C)cc3)n2)cc1"
  Assigned Category: 0.0
- Compound: "NC(=NS(=O)(=O)c1ccccc1)c1ccc(Cl)cc1"
  Assigned Category: 0.0
- Compound: "CCOC(=O)c1ccc(NC(=O)c2cc(OCC)cc(OCC)c2)cc1"
  Assigned Category: 0.0

Asked: Assay outcome for O=C(NC(=S)Nc1ccc2oc(-c3ccc(Br)cc3)nc2c1)c1ccco1 : what was it?
Given back: 0.0

Asked: // repeat for COc1cc(NC(=O)c2cnn3c2NC(c2cccs2)CC3C(F)(F)F)c(OC)cc1Cl (stereo not drawn) and report
Given back: 1.0

Asked: Moving on to O=C(Nc1ccc2oc(-c3cccc(Cl)c3Cl)nc2c1)c1ccccc1[N+](=O)[O-]
Given back: 0.0

Asked: Consider next the compound S=C1NC(c2ccccc2)=NCN1c1ccc(Br)cc1 in the same way.
Given back: 1.0

Asked: CCOC(=O)c1ccc(NC(=O)c2ccccc2OC)cc1 ?
Given back: 1.0

Asked: Cool, now COc1ccc2oc(=O)c(C(=O)O)cc2c1
Given back: 0.0

Asked: Another compound to look at: COC(=O)C1=C(C)N=c2s/c(=C/c3ccccc3OC(C)=O)c(=O)n2C1c1ccc(OC(C)=O)cc1 (stereo not drawn)
Given back: 0.0

Asked: And for CCOC(=O)C(C#N)C(=S)Nc1ccccc1 (stereo not drawn) ?
Given back: 0.0

Asked: Please give the result for Cc1cc(C(=O)Nc2ccccc2C(=O)O)ccc1NC(=O)CC(C)C too.
Given back: 0.0

Asked: Another: CCc1ccccc1NC(=O)/C(=C/c1ccccc1)c1ccccc1
Given back: 1.0

Asked: Note, next up: O=C(CSc1ccc(Cl)cc1Cl)Nc1cccc([N+](=O)[O-])c1
Given back: 0.0

Asked: # repeat for CCc1ccccc1NC(=O)C(=O)NCc1ccco1
Given back: 0.0

Asked: Then COC(=O)C1=C(O)/C(=C\c2ccccc2C(F)(F)F)N=C1C ?
Given back: 0.0

Asked: Input CN1C(=O)/C(=C\c2ccccc2OCCOc2ccc(Br)cc2)SC1=S
Given back: 0.0

Asked: Same for CCC(=O)Nc1ccccc1C(=O)N1CCN(Cc2ccccc2)CC1
Given back: 0.0

Asked: Item: O=C1OC(c2ccc(F)cc2)=N/C1=C\c1ccc2c(c1)OCO2
Given back: 0.0

Asked: Request: O=C1C2C3C=CC(C3=C(c3ccccc3)c3ccccc3)C2C(=O)N1c1cccc(C(F)(F)F)c1 (stereo not drawn)
Given back: 0.0

Asked: Try this compound next: CCC1=NN(C(=O)c2cccc(Br)c2)C(O)(c2ccc(C)cc2)C1 (stereo not drawn)
Given back: 0.0

Asked: Subsequent entry: Cc1cc(C(=O)N2CCN(c3cccc(Cl)c3)CC2)ccc1[N+](=O)[O-]
Given back: 0.0
